- target of assay: T1, CD134 expressed on the cell surface of HT1080_OX40 cells (human, UniProt P43489 29-277); further: test concentration or dose not given here
- T1 sequence (looked up): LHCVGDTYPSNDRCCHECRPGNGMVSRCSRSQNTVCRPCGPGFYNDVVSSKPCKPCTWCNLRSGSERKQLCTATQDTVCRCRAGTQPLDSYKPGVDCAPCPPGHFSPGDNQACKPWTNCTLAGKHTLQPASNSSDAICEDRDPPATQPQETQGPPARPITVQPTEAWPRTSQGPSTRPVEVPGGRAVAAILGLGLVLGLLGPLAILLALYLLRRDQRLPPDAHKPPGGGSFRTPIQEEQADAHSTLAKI
- experiment description: cell-based or functional assay
Doc: threshold 2 abs. corr. (exclusive). Items with Functional assay Cross-linked by F(ab′)2 fragment IL-8 beneath it return criterion met; others return criterion not met.

Worked set:
binder	assigned category
P018.S.12.A.E05 (antibody, V domains shown, V regions on human Ig constant parts; also called AB134_76) VH: QSVEESGGRLVTPGGSLTLTCTASGFDLSSYATSWVRQAPGKGLEWIGIIYGSGSTTYASWVKGQFTISKSSSTTVDLKMTSLTTEDTATYFCARGLVASTDNYNLWGPGTLVTVSS VL: AAVLTQTPSPVSVAVGGTVTINCQASQSVYNNNYLAWFQQKPGQPPKLLIYLASILASGVPSRFKGSGSGTQFTLTINGVQSDDAATYYCLGDVGGGERVFGGGTEVVVK	criterion not met
P018.S.11.A.F04 (antibody, V domains shown, V regions on human Ig constant parts; also called AB134_40) VH: QSVEESGGRLVTPGTPLTLTCTVSGFSLSRYTMGWVRQAPGKGLEYIGIIYGDDNTYYASWAKGRLTISKTSSTTVDLKITSPTTEDTATYFCASCAPIYYNTFSFNLWGQGTLVTVSA VL: AYDMTQTPASVEVAVGGTVTIKCQASQTIGGSLSWYQQKPGQPPKLLIYAAATLASGVPSRFKGSGSGTQFTLTISGVESDDAATYYCQQHYTGDNVNNPFGGGTEVVVK	criterion not met
P018.S.11.A.H04 (antibody, V domains shown, V regions on human Ig constant parts; also called AB134_47) VH: QEQLEESGGDLVKPGASLTLTCTASGLSFSGSYWICWVRQAPGKGLEWIGCITAGISGSTYYASWAKGRFTISKTSSTTVTLQMTSLTAADTATYFCARERTGGWGDFNLWGPGTLVTVSS VL: DVVMTQTPASVEAAVGGTVTIKCQASQSITTYLSWYQQKPGQPPKLLIYLASTLESGVPSRFKGSRSGTEYTLTISDLESADAATYYCQCTDGGINHWFWAFGGGTEVVVK	criterion met
P018.S.11.A.E04 (antibody, V domains shown, V regions on human Ig constant parts; also called AB134_35) VH: QSVEESGGRLVTPGTPLTLTCTVSGFSLNDYAMSWVRQAPGKGLEWIGSIYTSGTPYYATWAKGRFTISKTSTTVDLKITSPTTEDTATYFCARQSGIDNYWLFTLWGQGTLVCVSS VL: AYDMTQTPASVEVGVGGTVTIKCQASESIASGLAWYQQKPGQRPKLLIYSASSLASGVSSRFKGSGSGTQFTLTISDLESADAANYYCQQGYTSTNLHNVFGGGTEVVVK	criterion met
P018.S.13.A.G06 (antibody, V domains shown, V regions on human Ig constant parts; also called AB134_92) VH: QSLEESGGGLVKPGASLTLTCKASGFDLSSYYYMCWVRQAPGKGLEWIGCFYTDDSANTWYATWAKGRFTISKTSSTTVTLQMTSLTAADTATYFCARDASGWYWFNLWGPGTLVTVSS VL: AQVLTQTPSPVSAAVGGTVTISCQSSQSLHDDNALAWYQQKPGQPPKLLIYLASYLASGVPSRFKGSGSGTQFTLTISEVQSDDAATYYCQGAYSGDNNSFGGGTEVVVK	criterion met

Please look at the following binder next.
Q) Problem: For the binder P018.S.11.A.E06 (antibody, V domains shown, V regions on human Ig constant parts; also called AB134_37) VH: QSVEESGGRLVTPGTPLTLTCTASGFSLSSYYMSWVRQAPGKGLEWIGIIDTGSGDTWYATWAKGRFTISKTSTTVDLKMTSLTTEDTATYFCARVNPEFAHVWPYYFDLWGQGTLVTVSS VL: ALVMTQTPASVEVAVGGTVTIKCQASQSISSNFLSWYQQNPGQPPKLLIDRASTLESGVPSRFKGSGSGTEFTLTISDLESADAATYYCQQGDSLSNVENAFGGGTELVVK , is Functional assay Cross-linked by F(ab′)2 fragment IL-8 under 2 abs. corr.?
A) criterion met
